target: soluble IL-6R in cynomolgous plasma (cynomolgus monkey, UniProt A0A2K5WN54); experiment: ELISA 2, periplasmic extract; competitor IL-6; cyno plasma
// OD450 ratio sample/blank lookup, one value per entry
quantity_kind: OD450 ratio sample/blank

| binder | experimental_result |
| --- | --- |
| IL6RPMP103D7 (VHH) VHH: EVQLVESGGGLVEAGGSLRLSCAAAGRTLSSYSMAWFRQAPGKEREFVAIIRGNPSRTYHSDSVKGRFTASRDNAKNTVYLQMNRLEPEDTAVYYCAADPPPFASDYSAPQSYDYWGQGTQVTVSS | 0.0821 |
| IL6RPMP107E4 (VHH) VHH: EVQLVESGGGLVQAGGSLRLSCAASGSIDRINAMGWYRQAPGKQRDFLAVITDGDKTLYADSVKGRFTISNDNAKNTVYLQMNSLKPEDTAVYYCNAYQAGWGDYWGQGTQVTVSS | 1.19 |
